Every entry's value here was drawn from the Human Domainome abundance scans (Beltran et al. 2025).

B1: E3 ubiquitin-protein ligase Midline-1, residues 172 to 214; numbered along this chain, O15344 (parent)
chain: GLMCLEHEDEKVNMYCVTDDQLICALCKLVGRHRDHQVAALSE

Variants of: B1
procedure details: abundance fitness (aPCA) (normalised: wild type 0, dead -1); higher = more abundant; growth selection in yeast, the domain comes from the species named
assay conditions: Homo sapiens
reported property: abundance fitness
Number only, no unit.

Example results:
A39Y -0.393
A25L -0.28
K28D -0.038

// returns reported abundance fitness for input "M3N"
0.019

// returns reported abundance fitness for input "H33D"
-0.647
